Molecular target: T1, 6His-tagged Escherichia coli exonuclease I (Escherichia coli, UniProt P04995 1-475)
T1 sequence: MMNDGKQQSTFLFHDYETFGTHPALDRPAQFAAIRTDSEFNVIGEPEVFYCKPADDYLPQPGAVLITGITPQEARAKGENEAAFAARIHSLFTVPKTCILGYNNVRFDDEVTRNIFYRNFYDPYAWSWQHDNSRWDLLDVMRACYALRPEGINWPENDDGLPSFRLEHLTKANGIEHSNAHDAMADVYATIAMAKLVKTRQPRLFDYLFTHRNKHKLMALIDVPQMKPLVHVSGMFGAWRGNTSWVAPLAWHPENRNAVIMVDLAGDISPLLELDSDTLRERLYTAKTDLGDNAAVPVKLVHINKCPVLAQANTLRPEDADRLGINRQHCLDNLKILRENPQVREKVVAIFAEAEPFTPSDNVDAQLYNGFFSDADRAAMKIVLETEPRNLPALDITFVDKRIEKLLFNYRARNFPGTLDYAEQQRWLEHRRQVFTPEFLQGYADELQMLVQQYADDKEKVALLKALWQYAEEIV
Experiment: fluorescence polarisation
pKd: −log10 of the molar value. No end group written: not given here.

BINDER	pKd
{FAM}-WMDFDDDIPF [SSB C-terminal peptide, fluorescein-labeled (FAM-WMDFDDDIPF)]	7.01
